Test: soluble on expression in E. coli; label from the status in PepcDB or PDB records
Property name: soluble on expression in E. coli

>>> result("AKDWFVAVFANMAHNENKITKISDSLKEYNKRVQEKYAKYDSGKGDSKYSETYLQYVEGGSLTSIFGVRSLGINPADGKEIYLRPDGTITYDWNAADQVVIGNEEPKLQGTFGFNLRWKQFSLYSTFMYEFGGQRYNSTLVSKVENAHIQSSNVDRRVLTGRWQKPGDCTPYGRLQTDGVVAVTRPTSRFIQDYNVLTFNSLTLGYDFNAEWLKKARIGLLRVELSGNDLFRVATVRAERGLDYPYSRSFAASVKMSF")
"not soluble"
>>> result("MGSDKIHHHHHHDDDIIGALLEGKMPQATPVPPPTTVAATVASIDPPALKPAVDPRWVHLHNVHTGEKLEAVYWENGDYVPDAVSALDKVLRDYRNDEVHPIDRGLYDLLDQIARKTQSKGPFQVISGYRSPATNRLLSKRSGEVAKKSLHMDGKAMDIFLEDVELKHVRAAALDLSVGGVGYYPTSNFVHVDVGPVRKWTGT")
"not soluble"

---

Assay: soluble on expression in E. coli; label from the status in PepcDB or PDB records
Property name: soluble on expression in E. coli

>>> result("MAHHHHHHMRPLASFRGNTQTMLYTPVQDKYSILMEDDKLRVGASSMQGWRSTMEDAHTIHLSLPGLPSHMASEDGAIAAVFDGHCGSKTSQTSAIRILEWITSMEAFGEGNMEKAIRDGFIAGDLAMQRSSPNEMSGCTGNCVLIVENHLYCGNVGDSRAVLCRDGTAIPLSEDHKPNLPRERERVLRAGGYIHNGRVNGVLSLSRALGDFAFKDSDLPPEAQAVTAIPDVVHLELTPQDEFVIIACDGVWDMVTNEKAVEIVRSEVADHSDLSLACERLMDACLSKVSTGAGTDNMTVIILQFKSFFLKKVESRFGAISCNAAE")
"not soluble"
>>> result("MAQVLSLENVTLAVEKENSKQAIVKHVSFFINEGEIVALVGESGSGKSVTAQSIIGLNQESIQFDDGNISFESKDLTNLQESEWNQIRGKDISFIFQDPLSSLNPTMKVGRQITEVILQHEKKSKKEAKEIAINLLNDLGIHEAEKRFEQYPHQLSGGMRQRICLAIAFACHPKLVIADEPTTALDVTIQKQIMGLLKERKEKQNTSILLITHDLALVREVADRVVVMYGGRIVEKGTIQEVIGSPKHPYTKSLLQAIPNMDDAEKVLRAIEGTTPSIETLNSFGCPFVNRCPVAIQECIHRFPERTTYSAEHSSHCWQHVLEHDRAKSKEKVNVS")
"not soluble"

---

Assay: soluble on expression in E. coli; label from the status in PepcDB or PDB records
Property name: soluble on expression in E. coli

Use the examples below as a reference point.
>>> result("MGSDKIHHHHHHMNTLVLPKTQHLVVFQEVIRSGSIGSAAKSLGLTQPAVSKIISDVEAYFGVELIVRKNTGVTLTEAGQVLLSWSESITREMKNMINEMNSMTCNTVVDVSFGFPSLIGFTFMSDMIHKFKEVFPKAQVSMYEAQLSSFLPALRDGRLDFAIGTLSNEMQLQDLHVEPLFESEFVLVASKSRTCTGTITLESLKDEQWVLPQTNMGYYSELLTTLQRNGISIENIVKTDSVVTIYNLVLNADFLTVIPCDMTTPFGSNQFITIPIQDTLPVARYAAVWSKNYRIKKAASVLVELAKQYSSYNGCRRRQLIEIE")
"not soluble"
>>> result("MGSDKIHHHHHHMEFDQAKKIVVATIIDQQGLSDRLVGCKAIITSTGRLSYSIPLAWVRERLEVLIRESLYRGSFEVISLANPNDTRQKATLMIDPYLPPQELIILGGGHIAQPLAKIGKLLGYQVAVLDDRPEFVSKDRFPEADKTICCSFDTVENSFDLGPQSNVVIVTRGHQHDLLCLRQMLKYPLAYLGMIGSRRKVAIIRERLLEEGLAVKKLNSVYMPIGLDIGAQTPAEIAVSITAELIKVRRGGKAASIKNIDKKNNDNEAGVFNLGELPSTIDQEILQLTLQAAINHVPAALATVVSTKGSTPRKAGAHMLVWADGRSLGTVGGGQGEAKVRAEAFKIINTSQPILYRISMDAANAAMEGMICGGSMEVFIEPVNGFAQVSGGGGIL")
"not soluble"
>>> result("MSKEPGEDVDLFDMEQFQSSFKRILQRALKNVTVSFRVYEKDSVWIRVAWGTQYSQPNQYKPTFVVYYPQTPYAFISSCHLKNTVPLLHQALKVASKHHQIVHLDLRSRHLDSLKAIVFREYNQTCENYSSTTSLQEASLSMCLDSKITHENTEEKVRVHRVTQETFGTYPQPQLEFAQYKLETKFKSNIGGGLLADRKEPFRCLVKFSSPHLLEALKSLAPAGIADAPLSPLLTCIPSKKMNYFKIRDK")
"not soluble"
>>> result("MGSDKIHHHHHHMRTEFIPPSVTRAAFRLPTLSRLPPLTALRAFVVAARHASFSRAAEELHVSTAAIGQQVRILETHLGQPLFSRQRGELVLTDAGSTLYPGLADAFETMIGSLSDLMASGSRRQVKVLAEGCFAARWLAPRLGRIVPALGDVDIWIESLEGDAIDLTQFDADCAIVATHGQIPGFIHEPLFADTVSAVCTPDFAARHQLCGEPERLRDISFAMLRGNGGDAAFEWANWLRACRIPLRLSATGPRFSRQTALIEAILSGHGIGLARHSLISDELKSGRLIAAFGTPQPTASRYHLLTSPDRRRLPEIASLLALLREDIRSLEAAA")
"not soluble"
>>> result("SKNEKEQLSKAKASVSSLNKVIQTKLTVGNLGLGLVVIQNGPYLQISHLINKGAAASDGILQPGDVLISVGHANVLGYTLREFLKLLQNITIGTVLQIKAYRGFLEIPQEWQD")
"soluble"

For the next question, use this sequence.
# soluble on expression in E. coli of KNVNRVLSAEALKPGMLLTGTVSSLEDHGYLVDIGVDGTRAFLPLLKAQEYIRQKNKGAKLKVGQYLNCIVEKVKGNGGVVSLSVGHSEVSTAIATEQQSWNLNNL = soluble
